ASSAY_OVERVIEW: Structural thermal stability (Tm)
Assay type: physicochemical
This listing pairs molecules with measured Tm (° C.) Structural thermal stability.
# number only, unit °C dropped from output

Example entries begin here.
Need Tm (° C.) Structural thermal stability, item MNEI: single chain Monellin (MNEI) reference protein, SEQ ID NO:5, 96 amino acids (protein, Monelin MNEI) GEWEIIDIGPFTQNLGKFAVDEENKIGQYGRLTFNKVIRPCMKKTIYENEGFREIKGYEYQLYVYASDKLFRADISEDYKTRGRKLLRFNGPVPPP
69

Need Tm (° C.) Structural thermal stability, item DM12: modified MNEI protein, SEQ ID NO: 20, I8T/C41T as printed in Table 4 (protein, DM12) GEWEIIDTGPFTQNLGKFAVDEENKIGQYGRLTFNKVIRPTMKKTIYENEGFREIKGYEYQLYVYASDKLFRADISEDYKTRGLKLLRFNGPVPPP
65

Now examine the next entry.
Need Tm (° C.) Structural thermal stability, item DM10: modified MNEI protein, SEQ ID NO: 18, Q28K/R31T/N35T/S67N (protein, DM10) GEWEIIDIGPFTQNLGKFAVDEENKIGKYGTLTFTKVIRPCMKKTIYENEGFREIKGYEYQLYVYANDKLFRADISEDYKTRGRKLLRFNGPVPPP
71
